- Target: T1, Ebola virus GP with a C-terminal polyhistidine tag (Sino Biologicals, Catalog #40442-V08B1) (Ebola virus, UniProt P87666 33-650)
- T1 construct: also called EbolaGP.his; Ebola virus GP.his
- Assay info: SPR 37C, mAb captured, pH chase
Below is a list of entries, each paired with its recorded t½ ratio pH 7.4/pH 5.0 value.
Give the figure only, with no unit attached.

Would you please look over these solved cases?
Binder	Value measured
H1H17214P (antibody, V domains shown) VH: EVQLVESGGGLVQPGGSLRLSCAASKFTFDTFAMSWVRQAPGKGLEWVSFISSSGGRTDYVDSVKGRFTISRDNSKNTLYLQMNSLRAEDTAVYYCAKERTIFGVLILGPDNYGMDVWGQGTTVTVSS VL: DIQMTQSPSSLSAFVGDRVTITCRASQSISTYLNWYQQKPGKAPKLLIYAASSLQSGVSSRFSGSGSGTDFTLTISSLQPEDFATYYCQQSYSAPPITFGQGTRLEIK	1
H1H17193P (antibody, V domains shown) VH: QVQLVESGGGVVQPGRSLRLSCAASGFTFSSYGIHWVRQAPGKWLEWVAFIWFDGSNKYYADSVKGRFTISRDDSKNTLYLQMNSLRAEDTAVYYCARDGEIFGVLISSDAFDIWGQGTMVTVSS VL: DIQMTQSPSSLSASVGDRVTITCRASRGIRNDLGWFQQKPGKAPKRLIYVASNLQSGVPSRFSGSGSGTEFTLTISSLQPEDFATYYCLQHNSYPITFGQGTRLEIK	0.8

// next entry
H1H17162P (antibody, V domains shown) VH: EVQLVESGGGLVQPGGSLRLSCAASEFTFSSYAMSWVRQAPGKGLEWVSAISGSSGSTYYADSVKGRFTISRDNSKKTLYLQMNSLRVEDTAVYYCAKGGYPHSFDIWGHGTMVTVSS VL: DIQMTQSPSSLSASVGDRVTITCRASQSISSFLNWYQQKPGKAPKLLIYAASSLQSGVPSRFSGSGSGTDFTLTISSLQPEDFATYYCQQSYSSITFGQGTRLEIK yielded t½ ratio pH 7.4/pH 5.0 of 0.3

Data provenance: patent US20160215040A1
